# Test Target: c‐RAF (Homo sapiens, UniProt P04049, Y340D/Y341D)
# Sequence (P04049 306-648 Y340D/Y341D limits assumed): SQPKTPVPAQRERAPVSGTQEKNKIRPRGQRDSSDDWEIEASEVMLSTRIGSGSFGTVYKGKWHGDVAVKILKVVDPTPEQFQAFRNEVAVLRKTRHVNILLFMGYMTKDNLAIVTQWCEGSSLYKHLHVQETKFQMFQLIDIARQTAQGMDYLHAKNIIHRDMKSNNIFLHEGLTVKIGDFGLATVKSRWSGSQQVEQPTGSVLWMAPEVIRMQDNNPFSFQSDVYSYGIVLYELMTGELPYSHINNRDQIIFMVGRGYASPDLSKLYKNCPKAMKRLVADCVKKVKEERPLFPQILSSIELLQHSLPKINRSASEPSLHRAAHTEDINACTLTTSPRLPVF
# Experimental Details: Kinase inhibition assay
# Run Conditions: Biochemical IC50, cell-free
Measurement Label: IC50

1. COc1ccc2c(Oc3ccc4c(C(=O)Nc5ccccc5N)cccc4c3)ccnc2c1 :: 100 to 500 nM

* * *

Sequence of the target: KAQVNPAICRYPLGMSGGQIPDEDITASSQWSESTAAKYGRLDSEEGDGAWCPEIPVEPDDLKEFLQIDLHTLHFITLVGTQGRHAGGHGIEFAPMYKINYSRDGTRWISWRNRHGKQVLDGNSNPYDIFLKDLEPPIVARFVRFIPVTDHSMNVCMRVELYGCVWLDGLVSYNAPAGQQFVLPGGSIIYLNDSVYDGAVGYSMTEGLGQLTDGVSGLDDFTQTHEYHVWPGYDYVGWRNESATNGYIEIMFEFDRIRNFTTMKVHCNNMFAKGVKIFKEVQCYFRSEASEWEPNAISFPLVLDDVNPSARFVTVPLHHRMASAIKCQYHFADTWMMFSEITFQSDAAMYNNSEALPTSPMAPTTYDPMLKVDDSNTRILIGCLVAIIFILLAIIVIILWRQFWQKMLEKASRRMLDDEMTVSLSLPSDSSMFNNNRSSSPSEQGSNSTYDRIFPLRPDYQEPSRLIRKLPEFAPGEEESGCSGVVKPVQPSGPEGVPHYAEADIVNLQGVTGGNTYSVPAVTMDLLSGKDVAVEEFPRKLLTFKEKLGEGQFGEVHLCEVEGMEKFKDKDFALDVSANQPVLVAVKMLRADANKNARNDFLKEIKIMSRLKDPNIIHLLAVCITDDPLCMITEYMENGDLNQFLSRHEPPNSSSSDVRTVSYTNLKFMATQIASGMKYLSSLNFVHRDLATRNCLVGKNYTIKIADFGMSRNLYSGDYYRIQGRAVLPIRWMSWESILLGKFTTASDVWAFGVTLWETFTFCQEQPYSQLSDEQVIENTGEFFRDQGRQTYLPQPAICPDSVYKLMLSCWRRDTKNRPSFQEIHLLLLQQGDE
Measurement Label: IC50

1. COc1ccc2c(Oc3ccc4c(C(=O)Nc5ccccc5N)cccc4c3)ccnc2c1 [CS2164] :: 100 to 500 nM
